method.summary: logP determination by HPLC (EEC directive 79/831 Annex V. A8)
Assay type: physicochemical
protocol.conditions: HPLC gradient method, acetonitrile/0.1% aqueous phosphoric acid; Table 1
Entries annotated with measured logP*
Returns: the value as a bare number; no unit string appended.

compound	logP*
Fc1ccccc1-c1c(Cl)nc2ncnn2c1NOCc1cccc(Cl)c1	3.15
CCC(C)N(N)c1c(-c2cc(C(F)(F)F)ccc2Cl)c(Cl)nc2ncnn12 (stereo not drawn) [Example 148]	3.53
CCC(C)N(N)c1c(-c2c(F)cc(F)cc2F)c(Cl)nc2ncnn12 (stereo not drawn)	2.93
Fc1cccc(F)c1-c1c(Cl)nc2ncnn2c1NOCc1cc(Cl)cc(Cl)c1	3.63
Fc1cc(F)c(-c2c(Cl)nc3ncnn3c2NOC2CCCC2)c(F)c1	2.94
CC(C)(C)ONc1c(-c2c(F)c(F)c(F)c(F)c2F)c(Cl)nc2ncnn12	3.24
NN(CC1CC1)c1c(-c2c(Cl)cccc2Cl)c(Cl)nc2ncnn12	2.8
Fc1ccc(CONc2c(-c3c(F)cc(F)cc3F)c(Cl)nc3ncnn23)cc1	2.99

Consider the record given below.
Record request: logP* value, item CC(C)CN(N)c1c(-c2c(Cl)cccc2Cl)c(Cl)nc2ncnn12
3.17
